target: EIF3H (UniProt O15372); test: log2 ratio of Biotin-Ahx-Ub-VS probe labelling (fragment/DMSO); higher = less target engagement (more negative = stronger competition), active = hit call of the paper (q ≤ 0.05, log2 ratio ≤ -1); conditions: compound concentration: 200 uM; treatment time: 3 h
Sequence (O15372 whole entry, the tested form may be a part): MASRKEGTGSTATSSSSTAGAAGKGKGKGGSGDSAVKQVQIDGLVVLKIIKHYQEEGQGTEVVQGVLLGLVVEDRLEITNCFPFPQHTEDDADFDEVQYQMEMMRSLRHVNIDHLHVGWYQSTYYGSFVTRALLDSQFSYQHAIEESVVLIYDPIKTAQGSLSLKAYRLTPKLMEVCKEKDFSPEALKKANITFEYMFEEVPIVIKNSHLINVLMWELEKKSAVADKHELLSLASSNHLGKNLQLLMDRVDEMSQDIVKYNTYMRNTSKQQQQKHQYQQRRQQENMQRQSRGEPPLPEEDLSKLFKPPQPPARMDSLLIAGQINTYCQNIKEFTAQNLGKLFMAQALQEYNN
Classify by measured log2 ratio of Biotin-Ahx-Ub-VS probe labelling: met if it is equal to or exceeds 0.1, not met if it is smaller.

[
  {
    "Molecule": "O=C(CCl)N1CCc2sccc2C1",
    "Target": "EIF3H (UniProt O15372)",
    "Classification": "not met"
  },
  {
    "Molecule": "CC(=O)Nc1ccc(NC(=O)CCl)cc1",
    "Target": "EIF3H (UniProt O15372)",
    "Classification": "not met"
  },
  {
    "Molecule": "O=C(CCl)NCC(=O)N1CCCC1",
    "Target": "EIF3H (UniProt O15372)",
    "Classification": "not met"
  }
]

Prompt line: Does log2 ratio of Biotin-Ahx-Ub-VS probe labelling meet or surpass 0.1 for "O=C(CCl)NCc1ccc(Cl)cc1" ?
Response line: not met

Prompt line: What about "Cl.Cn1c(CNC(=O)CCl)nc2cccnc21" ?
Response line: not met

Prompt line: What about "Cc1ccn2cc(CNC(=O)CCl)nc2c1.Cl" ?
Response line: met

Prompt line: What about "Cl.O=C(CN1CCN(C(=O)CCl)CC1)Nc1ccc(F)cc1" ?
Response line: met

Prompt line: What about "O=C(CCl)NCc1ccc(N2CCOCC2)c(F)c1" ?
Response line: not met

====

biological target: USP5 (UniProt P45974); test: log2 ratio of Biotin-Ahx-Ub-VS probe labelling (fragment/DMSO); higher = less target engagement (more negative = stronger competition), active = hit call of the paper (q ≤ 0.05, log2 ratio ≤ -1); details: compound concentration: 200 uM; treatment time: 3 h
Sequence (P45974 whole entry, the tested form may be a part): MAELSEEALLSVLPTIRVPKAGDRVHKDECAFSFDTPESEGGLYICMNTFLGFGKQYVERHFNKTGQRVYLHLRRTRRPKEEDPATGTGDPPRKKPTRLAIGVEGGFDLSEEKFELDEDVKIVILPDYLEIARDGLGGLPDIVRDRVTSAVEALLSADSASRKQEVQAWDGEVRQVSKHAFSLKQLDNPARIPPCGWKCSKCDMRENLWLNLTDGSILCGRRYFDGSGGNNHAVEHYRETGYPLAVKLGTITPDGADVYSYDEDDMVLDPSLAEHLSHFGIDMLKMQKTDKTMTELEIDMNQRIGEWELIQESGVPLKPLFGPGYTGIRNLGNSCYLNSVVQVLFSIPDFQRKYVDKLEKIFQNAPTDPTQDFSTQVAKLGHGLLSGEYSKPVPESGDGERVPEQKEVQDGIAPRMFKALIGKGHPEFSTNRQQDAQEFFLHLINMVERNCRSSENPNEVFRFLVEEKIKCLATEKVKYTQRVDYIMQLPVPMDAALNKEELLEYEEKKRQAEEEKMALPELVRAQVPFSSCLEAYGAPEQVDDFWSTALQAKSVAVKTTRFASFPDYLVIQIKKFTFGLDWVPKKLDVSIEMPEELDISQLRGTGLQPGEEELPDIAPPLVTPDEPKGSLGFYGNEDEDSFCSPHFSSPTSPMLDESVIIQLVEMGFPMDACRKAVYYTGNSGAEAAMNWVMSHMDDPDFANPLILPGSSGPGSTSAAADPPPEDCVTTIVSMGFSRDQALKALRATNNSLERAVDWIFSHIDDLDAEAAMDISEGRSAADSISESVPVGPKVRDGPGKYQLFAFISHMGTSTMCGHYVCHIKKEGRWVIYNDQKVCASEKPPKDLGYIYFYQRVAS
Classify by measured log2 ratio of Biotin-Ahx-Ub-VS probe labelling: class 1 if it is equal to or exceeds 0.02, class 0 if it is smaller.

Look over these answered cases.
[
  {
    "Compound": "CC(=O)C1CCCCN1C(=O)CCl (configuration not stated)",
    "Target": "USP5 (UniProt P45974)",
    "Classification": "class 0"
  },
  {
    "Compound": "O=C(CCl)NCc1cccc(N2CCCC2=O)c1",
    "Target": "USP5 (UniProt P45974)",
    "Classification": "class 1"
  },
  {
    "Compound": "Cl.Cn1nc2c(c1CNC(=O)CCl)CCCC2",
    "Target": "USP5 (UniProt P45974)",
    "Classification": "class 1"
  },
  {
    "Compound": "Cc1cccc2nc(CCNC(=O)CCl)cn12.Cl",
    "Target": "USP5 (UniProt P45974)",
    "Classification": "class 0"
  },
  {
    "Compound": "O=C(CCl)N1CCCN(C(=O)c2ccc(Cl)cc2)CC1",
    "Target": "USP5 (UniProt P45974)",
    "Classification": "class 0"
  },
  {
    "Compound": "CC(=O)Nc1ccc(NC(=O)CCl)cc1",
    "Target": "USP5 (UniProt P45974)",
    "Classification": "class 0"
  }
]

Prompt line: Does log2 ratio of Biotin-Ahx-Ub-VS probe labelling meet or surpass 0.02 for "Cc1nc(-c2cccc(NC(=O)CCl)c2)cs1" ?
Response line: class 0

====

Below, each of the molecules is paired with its reported log2 ratio of Biotin-Ahx-Ub-VS probe labelling value.
molecular target: USP38 (UniProt Q8NB14); assay: log2 ratio of Biotin-Ahx-Ub-VS probe labelling (fragment/DMSO); higher = less target engagement (more negative = stronger competition), active = hit call of the paper (q ≤ 0.05, log2 ratio ≤ -1); conditions: compound concentration: 200 uM; treatment time: 3 h
Sequence (Q8NB14 whole entry, the tested form may be a part): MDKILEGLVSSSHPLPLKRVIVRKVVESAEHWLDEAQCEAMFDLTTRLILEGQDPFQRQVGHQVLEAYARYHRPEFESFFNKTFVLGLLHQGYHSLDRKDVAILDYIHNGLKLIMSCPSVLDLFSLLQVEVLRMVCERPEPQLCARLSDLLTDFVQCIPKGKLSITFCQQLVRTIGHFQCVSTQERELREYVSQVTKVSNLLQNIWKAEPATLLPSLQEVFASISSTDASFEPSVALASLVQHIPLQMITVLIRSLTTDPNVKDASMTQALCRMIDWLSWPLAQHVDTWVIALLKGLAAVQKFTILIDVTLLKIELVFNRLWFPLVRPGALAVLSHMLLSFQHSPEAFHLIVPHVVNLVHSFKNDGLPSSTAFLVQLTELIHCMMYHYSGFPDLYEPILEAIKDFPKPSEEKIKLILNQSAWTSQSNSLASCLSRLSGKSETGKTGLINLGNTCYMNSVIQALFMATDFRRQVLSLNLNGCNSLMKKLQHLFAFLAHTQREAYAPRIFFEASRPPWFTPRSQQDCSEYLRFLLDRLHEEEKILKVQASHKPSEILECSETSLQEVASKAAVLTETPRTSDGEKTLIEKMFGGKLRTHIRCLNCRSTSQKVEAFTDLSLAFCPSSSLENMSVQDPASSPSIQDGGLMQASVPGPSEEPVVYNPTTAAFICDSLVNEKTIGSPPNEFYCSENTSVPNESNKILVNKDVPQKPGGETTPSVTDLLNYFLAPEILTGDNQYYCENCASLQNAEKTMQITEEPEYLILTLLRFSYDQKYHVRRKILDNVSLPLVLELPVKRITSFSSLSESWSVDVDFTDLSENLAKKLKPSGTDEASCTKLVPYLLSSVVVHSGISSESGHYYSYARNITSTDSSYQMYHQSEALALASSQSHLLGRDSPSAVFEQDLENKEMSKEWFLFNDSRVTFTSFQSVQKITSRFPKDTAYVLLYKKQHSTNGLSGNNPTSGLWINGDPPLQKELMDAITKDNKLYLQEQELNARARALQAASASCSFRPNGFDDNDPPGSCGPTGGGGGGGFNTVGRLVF
Output: the number by itself.

Below, 8 molecules whose answers are already recorded.
[
  {
    "Molecule": "CNC(=O)Cn1cc(NC(=O)CCl)cn1",
    "Recorded Number": -0.0407
  },
  {
    "Molecule": "O=C(CCl)NCc1ccc2c(c1)OCO2",
    "Recorded Number": -0.0864
  },
  {
    "Molecule": "Cl.O=C(CCl)N1CCc2ncncc2C1",
    "Recorded Number": -0.0489
  },
  {
    "Molecule": "CCC1c2ccsc2CCN1C(=O)CCl (stereo not drawn)",
    "Recorded Number": -0.204
  },
  {
    "Molecule": "CN(CCC(O)c1ccc(Br)cc1)C(=O)CCl (stereo not drawn)",
    "Recorded Number": -0.17
  },
  {
    "Molecule": "Cc1ccc2nnc(CNC(=O)CCl)n2c1",
    "Recorded Number": -0.0516
  },
  {
    "Molecule": "O=C(CCl)N[C@H]1CCS(=O)(=O)c2ccccc21",
    "Recorded Number": -0.13
  },
  {
    "Molecule": "NC(=O)C1CCCN(C(=O)CCl)C1 (stereo not drawn)",
    "Recorded Number": -0.242
  }
]

Prompt line: What value of measured log2 ratio of Biotin-Ahx-Ub-VS probe labelling is listed for CC(NC(=O)CCl)c1cccc(Cl)c1 (stereo not drawn) ?
Response line: -0.175

Prompt line: What about "O=C(CCl)N(Cc1ccsc1)C1CC1" ?
Response line: 0.00214

Prompt line: What about "COc1cc(Cl)c(C)cc1NC(=O)CCl" ?
Response line: -0.241

Prompt line: What about "Cc1nc(CNC(=O)CCl)c2ccccn12.Cl" ?
Response line: -0.0607

Prompt line: What about O=C(CCl)N1CCOCC1C1CC1 (stereo not drawn) ?
Response line: 0.0391

Prompt line: What about Cc1ccc(N(C(=O)CCl)C2C=CS(=O)(=O)C2)cc1 (stereo not drawn) ?
Response line: 0.105

Prompt line: What about O=C(CCl)N1CCC(c2ccn[nH]2)C1 (stereo not drawn) ?
Response line: -0.148

Prompt line: What about "CN(CCc1ncc(Br)cn1)C(=O)CCl.Cl" ?
Response line: -0.00939

Prompt line: What about "Cl.O=C(CCl)NC1(c2ncccn2)CCC1" ?
Response line: 0.0726

Prompt line: What about "O=C(CCl)NCc1cccc(F)c1" ?
Response line: 0.0703

====

target: USP10 (UniProt Q14694); assay: log2 ratio of Biotin-Ahx-Ub-VS probe labelling (fragment/DMSO); higher = less target engagement (more negative = stronger competition), active = hit call of the paper (q ≤ 0.05, log2 ratio ≤ -1); conditions: compound concentration: 200 uM; treatment time: 3 h
Sequence (Q14694 whole entry, the tested form may be a part): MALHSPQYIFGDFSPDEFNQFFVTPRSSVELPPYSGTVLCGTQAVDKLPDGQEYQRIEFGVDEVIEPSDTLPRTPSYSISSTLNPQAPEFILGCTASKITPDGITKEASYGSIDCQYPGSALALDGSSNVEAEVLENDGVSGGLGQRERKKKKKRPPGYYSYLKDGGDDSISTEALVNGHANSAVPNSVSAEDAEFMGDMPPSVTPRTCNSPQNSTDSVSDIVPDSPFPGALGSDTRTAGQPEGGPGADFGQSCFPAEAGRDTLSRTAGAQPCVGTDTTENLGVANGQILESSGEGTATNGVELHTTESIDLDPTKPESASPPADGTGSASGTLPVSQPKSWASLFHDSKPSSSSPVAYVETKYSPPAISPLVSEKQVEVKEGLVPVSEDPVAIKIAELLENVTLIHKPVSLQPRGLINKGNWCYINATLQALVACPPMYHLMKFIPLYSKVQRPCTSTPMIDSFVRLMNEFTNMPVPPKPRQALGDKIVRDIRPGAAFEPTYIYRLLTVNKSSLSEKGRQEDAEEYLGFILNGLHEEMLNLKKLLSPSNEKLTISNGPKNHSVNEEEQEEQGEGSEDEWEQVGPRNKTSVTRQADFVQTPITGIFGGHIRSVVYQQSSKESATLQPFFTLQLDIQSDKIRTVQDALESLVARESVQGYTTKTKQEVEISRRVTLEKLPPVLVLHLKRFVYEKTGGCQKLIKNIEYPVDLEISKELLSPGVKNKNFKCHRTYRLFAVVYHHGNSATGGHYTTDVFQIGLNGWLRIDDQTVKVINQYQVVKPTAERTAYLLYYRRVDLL
Classify by measured log2 ratio of Biotin-Ahx-Ub-VS probe labelling: Met if it is equal to or exceeds -0.07, Not met if it is smaller.

[
  {
    "Compound": "O=C(CCl)N1CCCCCC1c1ncon1 (configuration not stated)",
    "Target": "USP10 (UniProt Q14694)",
    "Classification": "Met"
  },
  {
    "Compound": "Cc1ccc2nnc(CNC(=O)CCl)n2c1",
    "Target": "USP10 (UniProt Q14694)",
    "Classification": "Not met"
  }
]

Prompt line: Does log2 ratio of Biotin-Ahx-Ub-VS probe labelling meet or surpass -0.07 for "Cc1n[nH]c2c1CN(C(=O)CCl)CC2" ?
Response line: Not met

Prompt line: What about Cc1cccc(C(CNC(=O)CCl)N2CCOCC2)c1.Cl (configuration not stated) ?
Response line: Not met

Prompt line: What about O=C(CCl)N1CCOCCC1c1ccccc1 (configuration not stated) ?
Response line: Not met

====

target: PRPF8 (UniProt Q6P2Q9); assay: log2 ratio of Biotin-Ahx-Ub-VS probe labelling (fragment/DMSO); higher = less target engagement (more negative = stronger competition), active = hit call of the paper (q ≤ 0.05, log2 ratio ≤ -1); conditions: compound concentration: 200 uM; treatment time: 3 h
Property Measured: log2 ratio of Biotin-Ahx-Ub-VS probe labelling
Output: the number by itself.

Below, 5 compounds whose answers are already recorded.
[
  {
    "Compound": "Cl.Cn1nc2c(c1CNC(=O)CCl)CCCC2",
    "Recorded Number": -0.184
  },
  {
    "Compound": "O=C(CCl)NCc1ccc2c(c1)OCO2",
    "Recorded Number": -0.215
  },
  {
    "Compound": "Cc1cc(CC(C)NC(=O)CCl)n[nH]1 (configuration not stated)",
    "Recorded Number": -0.109
  },
  {
    "Compound": "Cc1noc(N2CCN(C(=O)CCl)CC2)n1.Cl",
    "Recorded Number": -0.079
  },
  {
    "Compound": "O=C(CCl)NC1CCN(C(=O)C2CCCCC2)CC1",
    "Recorded Number": 0.0534
  }
]

Prompt line: What value of measured log2 ratio of Biotin-Ahx-Ub-VS probe labelling is listed for "N#Cc1ccccc1N1CCN(C(=O)CCl)CC1" ?
Response line: -0.322

Prompt line: What about "CNC(=O)Cn1cc(NC(=O)CCl)cn1" ?
Response line: 1e-05

Prompt line: What about "Cc1c(C#N)c(NC(=O)CCl)n(Cc2ccco2)c1C" ?
Response line: 0.194

Prompt line: What about "CS(=O)(=O)c1ccc(CNC(=O)CCl)cc1" ?
Response line: -0.126

Prompt line: What about "COc1cccc(CN(C)C(=O)CCl)c1" ?
Response line: -0.0045

Prompt line: What about "O=C(CCl)Nc1ccc(F)cc1F" ?
Response line: -0.105

Prompt line: What about CCC(NC(=O)CCl)c1ccc(Cl)cc1 (configuration not stated) ?
Response line: 0.164
